Test system: Candida albicans
Experiment: Antifungal activity against Candida albicans AN 1699 by broth dilution method
Format: functional
readout.kind: MIC (µg/mL)
Answers are plain numbers, in µg/mL.

For each of the compounds below, note its MIC.
1. OC(Cn1cncn1)(Cn1cncn1)c1ccc(F)cc1F [FLUCONAZOLE]
2. CC(C)[C@H](N)c1nc2ccccc2n1Cc1cccc(F)c1
3. Cc1cccc(Cn2c([C@@H](N)C(C)C)nc3ccccc32)c1
4. C[C@H](N)c1nc2ccccc2n1Cc1cccc(Cl)c1
5. CC(C)[C@H](N)c1nc2ccccc2n1Cc1cccc(Cl)c1
6. Cc1cccc(Cn2c([C@H](C)N)nc3ccccc32)c1

Result block:
1: 8; 2: 16; 3: 64; 4: 16; 5: 32; 6: 128

----------
Test system: Candida albicans
Assay: Antifungal activity against Candida albicans CA20 by broth dilution method
Type: functional
Assignment: determine reported MIC for the given compounds.
One number for each entry, in µg/mL.

Some compounds with known MIC results, for comparison:
smiles.data	readout.kind	u	numeric.readout
Cc1cccc(Cn2c([C@H](C)N)nc3ccccc32)c1	MIC	µg/mL	1
C[C@H](N)c1nc2ccccc2n1Cc1cccc(Cl)c1	MIC	µg/mL	0.125
OC(Cn1cncn1)(Cn1cncn1)c1ccc(F)cc1F	MIC	µg/mL	0.125
Cc1cccc(Cn2c([C@@H](N)C(C)C)nc3ccccc32)c1	MIC	µg/mL	0.125

Quick request: MIC for each listed item, please.
1. CC(C)[C@H](N)c1nc2ccccc2n1Cc1cccc(F)c1
2. CC(C)[C@H](N)c1nc2ccccc2n1Cc1cccc(Cl)c1

Result block:
[0.125, 0.125]

----------
Assay: Cytotoxicity against human HeLa cells assessed as cell viability after 5 days by fluorescein diacetate assay
Format: cell-based
Exam item: assign T to entries whose CC50 at 120 h is below 40 µM and F to entries at or above 40 µM. Note that a value of exactly 40 µM receives F.

smiles.data	answer.label
CCC[C@H](N)c1nc2ccccc2n1Cc1cccc(C)c1	T
CC(C)[C@H](N)c1nc2ccccc2n1Cc1cccc(Cl)c1	F

Query block: Below 40 µM on CC50 at 120 h? Entry CC(C)[C@H](N)c1nc2ccccc2n1Cc1cccc(F)c1
Result block: T

Query block: Field entry: C[C@H](N)c1nc2ccccc2n1Cc1cccc(Cl)c1
Result block: T

Query block: // same read-out, input: Cc1cccc(Cn2c([C@@H](N)C(C)C)nc3ccccc32)c1
Result block: T

Query block: How about this molecule: CCC[C@H](N)c1nc2ccccc2n1Cc1ccc(Cl)cc1
Result block: T

Query block: Another: CC(C)C[C@H](N)c1nc2ccccc2n1Cc1ccc(Cl)cc1
Result block: T

Query block: Next entry: CC(C)(N)c1nc2ccccc2n1Cc1ccc(Cl)cc1
Result block: F

----------
Task for the reader: assign each of the following compounds its reported MIC.
Test system: Candida albicans
Assay: Antifungal activity against Candida albicans Jg 32570 by broth dilution method
Type: functional

Answered examples (5):
smiles.data	target.desc	MIC
CC(C)[C@H](N)c1nc2ccccc2n1Cc1cccc(Cl)c1	Candida albicans	16 µg/mL
Cc1cccc(Cn2c([C@H](C)N)nc3ccccc32)c1	Candida albicans	128 µg/mL
C[C@H](N)c1nc2ccccc2n1Cc1cccc(Cl)c1	Candida albicans	128 µg/mL
OC(Cn1cncn1)(Cn1cncn1)c1ccc(F)cc1F	Candida albicans	128 µg/mL
CC(C)[C@H](N)c1nc2ccccc2n1Cc1cccc(F)c1	Candida albicans	128 µg/mL

As a next step, examine the compound that follows.
Query block: What value of MIC has been recorded for this entry: Cc1cccc(Cn2c([C@@H](N)C(C)C)nc3ccccc32)c1
Result block: 128 µg/mL
